Where do the numbers come from? From ChEMBL document CHEMBL5352429.

Would you kindly list MIC for each of these molecules?
- System: Salmonella enterica subsp. enterica serovar Paratyphi B
- TEST METHOD NOTES: Antibacterial activity against Salmonella paratyphi B CICC 21495 incubated overnight by standard microtiter dilution method
- Format: functional
Peptide text beside a SMILES is read from it.
Only the number, expressed in µg/mL, is required.

Query :: State MIC (Salmonella enterica subsp. enterica serovar Paratyphi B) of C[C@@H](O)[C@H](NC(=O)[C@H](CS)NC(=O)[C@H](CCCCN)NC(=O)[C@H](Cc1c[nH]c2ccccc12)NC(=O)[C@H](CCCCN)NC(=O)[C@@H](N)Cc1c[nH]c2ccccc12)C(=O)N[C@@H](CCCCN)C(=O)N[C@@H](CO)C(=O)NCC(=O)N[C@@H](CS)C(=O)N[C@@H](CCCCN)C(=O)N[C@@H](Cc1c[nH]c2ccccc12)C(=O)N[C@@H](CCCCN)C(=O)N[C@@H](Cc1c[nH]c2ccccc12)C(N)=O (H-WKWKCTKSGCKWKW-NH2) .
Result :: 1

Query :: State MIC (Salmonella enterica subsp. enterica serovar Paratyphi B) of CC(C)[C@H](N)C(=O)N[C@@H](CCCCN)C(=O)N[C@H](C(=O)N[C@@H](CCCCN)C(=O)N[C@H](C(=O)N[C@@H](CCCCN)C(=O)N[C@@H](CS)C(=O)N[C@H](C(=O)N[C@@H](CCCCN)C(=O)N[C@@H](CO)C(=O)NCC(=O)N[C@@H](CS)C(=O)N[C@@H](CCCCN)C(=O)N[C@H](C(=O)N[C@@H](CCCCN)C(=O)N[C@H](C(=O)N[C@@H](CCCCN)C(=O)N[C@H](C(N)=O)C(C)C)C(C)C)C(C)C)[C@@H](C)O)C(C)C)C(C)C (H-VKVKVKCTKSGCKVKVKV-NH2) .
Result :: 1

Query :: State MIC (Salmonella enterica subsp. enterica serovar Paratyphi B) of CC(C)[C@H](NC(=O)CNC(=O)[C@H](CC(N)=O)NC(=O)CNC(=O)[C@H](Cc1ccc(O)cc1)NC(=O)[C@H](Cc1ccc(O)cc1)NC(=O)[C@@H](N)CCCCN)C(=O)N[C@@H](Cc1c[nH]cn1)C(=O)N[C@@H](CS)C(=O)N[C@H](C(=O)N[C@@H](CCCCN)C(=O)N[C@@H](CO)C(=O)NCC(=O)N[C@@H](CS)C(=O)N[C@@H](CO)C(=O)N[C@H](C(=O)N[C@@H](CC(N)=O)C(=O)N[C@@H](Cc1c[nH]c2ccccc12)C(N)=O)C(C)C)[C@@H](C)O (H-KYYGNGVHCTKSGCSVNW-NH2) .
Result :: 32

Query :: State MIC (Salmonella enterica subsp. enterica serovar Paratyphi B) of CC(C)[C@H](N)C(=O)N[C@@H](CCCCN)C(=O)N[C@H](C(=O)N[C@@H](CCCCN)C(=O)N[C@@H](CS)C(=O)N[C@H](C(=O)N[C@@H](CCCCN)C(=O)N[C@@H](CO)C(=O)NCC(=O)N[C@@H](CS)C(=O)N[C@@H](CCCCN)C(=O)N[C@H](C(=O)N[C@@H](CCCCN)C(=O)N[C@H](C(N)=O)C(C)C)C(C)C)[C@@H](C)O)C(C)C (H-VKVKCTKSGCKVKV-NH2) .
Result :: 16

Query :: State MIC (Salmonella enterica subsp. enterica serovar Paratyphi B) of C[C@@H](O)[C@H](NC(=O)[C@H](CS)NC(=O)[C@H](CCCCN)NC(=O)[C@@H](N)Cc1c[nH]c2ccccc12)C(=O)N[C@@H](CCCCN)C(=O)N[C@@H](CO)C(=O)NCC(=O)N[C@@H](CS)C(=O)N[C@@H](CCCCN)C(=O)N[C@@H](Cc1c[nH]c2ccccc12)C(N)=O (H-WKCTKSGCKW-NH2) .
Result :: 16

Query :: State MIC (Salmonella enterica subsp. enterica serovar Paratyphi B) of CN[C@@H]1[C@H](O[C@H]2[C@H](O[C@H]3[C@H](O)[C@@H](O)[C@H](N=C(N)N)[C@@H](O)[C@@H]3N=C(N)N)O[C@@H](C)[C@]2(O)C=O)O[C@@H](CO)[C@H](O)[C@H]1O .
Result :: 32
